Measured values drawn from PubChem BioAssay (NCI) for this set.

Provide the reported growth of each item.
Test system: SF-539 CNS
Assay Name: NCI-60 one-dose screen, 48 h (100 = growth as untreated, 0 = no growth, -100 = all killed)
Setup Conditions: 10 µM unless noted
About 83,000 compounds went through this panel and 20% of them were active in at least one assay; those are over-represented in the sample as a whole.
API: value field is a number in %; no unit string.

Param item = Fc1cc(-c2nnc3sc(-c4ccc(Cl)cc4)nn23)c(Cl)cc1Cl ; retrieve measured growth. 107

Likewise for C/C(=N\OC(=O)Nc1ccccc1)c1ccccc1 ? 105

Next record, please: CC[C@H](Nc1nc(C)nc(N)c1C#N)c1nc2cccc(NCc3ccc(C(=O)NO)cc3)c2c(=O)n1-c1ccccc1 14.6

What about this molecule? C/C(CC(=O)NNc1ccc([N+](=O)[O-])cc1)=N\Nc1ccc([N+](=O)[O-])cc1 68.2

Same again, this time with CC[C@H](Nc1nc(N)nc(C2CC2)c1C#N)c1nc2cccc(NCc3ccc(C(=O)NO)cc3)c2c(=O)n1-c1ccccc1 -0.037

Same for N#Cc1c(NN)n(C2OC(CO)C(O)C2O)c2ncnc(N)c12 (stereo not given) -5.9

Input NC(=O)Nc1ccc2ncnc(Nc3cccc(O)c3)c2c1 109

Quick one: COc1cc(/C=C/C(=O)c2ccc(NC(=O)CSc3nnc(-c4ccc(Cl)cc4)n3-c3ccccc3)cc2)cc(OC)c1OC 91.3

Can you check CCCCCCCCCCCCCCCc1cc(O)ccc1[N+](=O)[O-] next? 103

Input Clc1cn2cc(-c3ccc(Cl)c(Cl)c3Cl)nc2s1 105

---

Test system: M14 melanoma
Assay Name: NCI-60 one-dose screen, 48 h (100 = growth as untreated, 0 = no growth, -100 = all killed)
Setup Conditions: 10 µM unless noted
This is part of a sample that, as a whole, favours compounds with a hit. Of some 83,000 tested, about 20% had one in any assay.
Criterion: growth strictly less than 80%. Met: criterion met. Not met: criterion not met.

# strict comparison: is reported growth < 80%? input = CC1(C)CC[C@]2(C(=O)N3CCNCC3)CC[C@]3(C)C(=CC[C@@H]4[C@@]5(C)CCC(=O)C(C)(C)[C@@H]5CC[C@]43C)[C@@H]2C1 criterion not met

Continue with CCCCCCCCCCCCCCCCOc1ccc(S(=O)(=O)N(C)C)cc1[N+](=O)[O-] criterion not met

Try the compound Cc1nc2ccc(Nc3nc(N4CCOCC4)nc(N4CCN(C)CC4)n3)cc2n1Cc1ccccc1 criterion not met

Could you do the same for Nc1nc(N)c2c(n1)NC(c1sc(Cl)nc1Cl)CC(c1ccccc1)=N2 (stereo unspecified) , please? criterion met

Here is the next compound: CCCCCCCCCCCC1=NC(C)(C)CN1C(C)(C)CO criterion met

Also COc1ccc(C2=Nn3c(nnc3-c3ccc(Cl)cc3N)SC2)cc1 , if possible. criterion not met

What do you have for C#CC[C@@H]1C[C@]2(C)[C@H]3CC=C4[C@H]5CC(C)(C)CC[C@]5(C(=O)NCCCCN)CC[C@@]4(C)[C@]3(C)CC[C@H]2C(C)(C)[C@H]1OC(C)=O ? criterion met

Try O=C(CI)NCCNc1cccc2c(S(=O)(=O)O)cccc12 next. criterion not met

Okay, and Nc1nc2ccc([C@@H]3Nc4ccc5[nH]ncc5c4[C@H]4[C@H]5CCC(C5)[C@H]43)cc2s1 ? criterion met

Likewise for CC1=C(C(=O)Nc2ccc(F)cc2)C(c2ccccc2)C2=C(CC(C)(C)CC2=O)N1 (stereo unspecified) ? criterion not met

Next compound: Oc1ccc(Nc2ncnc3c2sc2ncccc23)cc1 criterion met

Try Cn1c(=O)c2[nH]c(Cc3ccc4c(c3)OCO4)nc2n(C)c1=O next. criterion not met

// same read-out, input: CCOC(=O)C(Nc1ccccc1)C(=O)OCC criterion not met

And CN=C1C=C/C(=N/N=c2/ccn(O)cc2C)C=C1C ? criterion not met

Now give it for Cc1ccc(NC(=O)c2nc(S(C)=O)oc2-c2ccc(F)cc2)cc1Nc1nccc(-c2cccnc2)n1 (stereo unspecified) too. criterion met

// query: COc1ccc(-c2[nH]nc(N)c2-c2cc(OC)c(OC)c(OC)c2)cc1 criterion met

Please answer likewise for CCCCCCCCCCCCCCCCS(=O)(=O)Nc1cc(C(=O)NN)cc(C(=O)NN)c1 criterion not met

Further, for COc1cc(/C=C/c2ccc3c(Br)cc(Br)c(O)c3n2)ccc1O ? criterion met

What would you report for FC(F)(F)C1=NNC(c2ccc3ccccc3c2)=NN1 ? criterion not met

Check O=C(O)Cn1ccc2ccccc21 too. criterion not met

Next entry: Oc1ccc(CCCCCCc2ccc(O)cc2)cc1 criterion met

---

Answer each item with its documented growth.
Tested on: MOLT-4 leukemia
Assay Name: NCI-60 one-dose screen, 48 h (100 = growth as untreated, 0 = no growth, -100 = all killed)
Setup Conditions: 10 µM unless noted
This is part of a sample that, as a whole, favours compounds with a hit. Of some 83,000 tested, about 20% had one in any assay. Active and inactive are the calls of the source. The calls were made as follows: active = growth percent below 10; inactive = the rest.

Form field: reported growth of CC(=O)O[C@H]1[C@H](CC#CC#CC[C@@H]2C[C@]3(C)[C@H]4CC=C5[C@H]6[C@@H](C)[C@H](C)CC[C@]6(C(=O)NCCN(CCN)CCN)CC[C@@]5(C)[C@]4(C)CC[C@H]3C(C)(C)[C@H]2OC(C)=O)C[C@]2(C)[C@H]3CC=C4[C@H]5[C@@H](C)[C@H](C)CC[C@]5(C(=O)NCCN(CCN)CCN)CC[C@@]4(C)[C@]3(C)CC[C@H]2C1(C)C 26.8% (inactive)

Thanks! And NCCCOc1cc2ccccc2cc1C(=O)NCCCOc1cc2ccccc2cc1C(=O)Nc1ccc(Cl)cc1O ? -20.6% (active)

Try CCc1ccc(-c2ccc(NC3CCCCCC3)nn2)cc1S(N)(=O)=O next. 91.7% (inactive)

Try O=C1/C(=C\c2cccn2C(=O)c2ccccc2)c2ccccc2N1c1c(Cl)cccc1Cl next. 27.9% (inactive)

One more molecule: Fc1cnccc1-c1nc2ccc3[nH]ncc3c2c2c1CCCC2 21.2% (inactive)

Let us now turn to C/C(=C\C(=N\N=C(N)N)c1ccc(Cl)cc1)c1ccc(Cl)cc1 -48% (active)

Repeat with CC(=O)N[C@@H](CCC(N)=O)C(=O)O 95.3% (inactive)

Another molecule to check: COc1ccc(/C=C2\Cc3c(Br)cccc3C2=O)c(OC)c1 94.1% (inactive)

What about this molecule? C#CC[C@@H]1C[C@]2(C)[C@H]3CC=C4[C@H]5CC(C)(C)CC[C@]5(C(=O)NCCCCN)CC[C@@]4(C)[C@]3(C)CC[C@H]2C(C)(C)[C@H]1OC(C)=O 12.2% (inactive)

What about CN1CCN(Cc2ccc(NC(=O)c3cncc(C#Cc4cnc5cccnn45)c3)cc2C(F)(F)F)CC1 ? -1.76% (active)

Please answer likewise for Cc1cc(C)cc(Nc2cc(C)nc3nc(C(F)(F)F)nn23)c1 18.4% (inactive)

How about COC1=CC(c2ccc[nH]2)=N/C1=C\c1[nH]c(C)c(C(=O)CCCCCCCCC(=O)O[C@H]2CC[C@H]3C4CCc5cc(O)ccc5C4CC[C@]23C)c1C (stereo partly drawn) ? 19.5% (inactive)

Proceed to CCN(CC)C(Cl)=Nc1ccc(Cl)cc1 95.7% (inactive)

Quick one: CCN(C(=O)Nc1cccc2ccccc12)c1ccccc1 72.6% (inactive)

Now the same for C#CC[C@@H]1C[C@]2(C)[C@H]3CC[C@@H]4[C@H]5C(C(=C)C)CC[C@]5(C(=O)NCCCCN)CC[C@@]4(C)[C@]3(C)CC[C@H]2C(C)(C)[C@H]1OC(C)=O (stereo partly drawn) -21.3% (active)

Please give the result for O=c1cc(-c2ccc3c(c2)OCCO3)oc2cc(Cl)ccc12 too. 101% (inactive)

What about O=C(OCc1ccc2c(Cl)cc(Cl)c(O)c2n1)c1cc2ccccc2[nH]1 ? -8.99% (active)

// next record Cc1cc(Cl)c2ccc(N(C)C)cc2n1 84.7% (inactive)

---

Test system: HOP-62 NSCLC
Assay Name: NCI-60 one-dose screen, 48 h (100 = growth as untreated, 0 = no growth, -100 = all killed)
Setup Conditions: 10 µM unless noted
The panel holds about 83,000 compounds, 20% with a hit somewhere; the sample as a whole holds those more often.
Value Type: growth (%)
Your answer is read as %, so omit the unit and give the number.

Can you look up the measured growth of CN1CCN(Cc2ccc(NC(=O)c3cncc(C#Cc4ncc5cnccn45)c3)cc2C(F)(F)F)CC1 for me? 33.7

Item: Cc1cc(O)ccc1C1=NN(c2ccc(S(N)(=O)=O)cc2)C(=O)CC1 80.2

Then this compound: C=C(CN1CC=CCC1)[C@@H]1CC[C@]2(C(=O)OC)CC[C@]3(C)[C@H](CC[C@@H]4[C@@]5(C)CC[C@H](OC(C)=O)C(C)(C)[C@@H]5CC[C@]43C)[C@@H]12 106

Repeat with CC(CN1CCN(C)CC1)CN1c2ccccc2Sc2ccc(C(F)(F)F)cc21 (stereo not given) 85.6

One more compound: Clc1ccc2c(c1)-n1cccc1C(c1ccc3ccccc3c1)=NC2 101

Another: O=c1[nH]c2ccccc2n2cc3cccnc3c12 68.7

Try CCOc1ccc([C@@H]2[C@@H](Oc3ccccc3)C(=O)N2c2cc(OC)c(OC)c(OC)c2)cc1 next. 27.4

Could you do the same for CCCCCCCCCCCCCCCCCC1=NC(C)(C)CN1C(C)(C)CO , please? -100

// query: COc1ccc2c(c1)CCCC21C(=O)Nc2ccccc21 (stereo not given) 96.5

Query CCCCCc1c(C)[nH]c(/C=C2\N=C(c3ccc[nH]3)C=C2CC)c1C next -72.2

Then this compound: CCOC(=O)Nc1ccc2nc(-c3cscn3)[nH]c2c1 54.1

Please answer likewise for CC(C)OC(=O)c1ccc([N+](=O)[O-])cc1 110

Please answer likewise for CCCCn1cnc(-c2cc(-c3ccccc3)cc(C(F)(F)F)c2)n1 99.1

Now consider CN1CCN(Cc2ccc(NC(=O)c3cncc(C#Cc4ccc(N)nc4)c3)cc2C(F)(F)F)CC1 and answer again. 8.59

Also COc1cc(-c2nc(-c3nc4cc(C(=O)c5ccccc5)ccc4[nH]3)cc3c2[nH]c2ccccc23)cc(OC)c1OC ? 97.7

Another compound to check: Fc1cc(-c2nnc3sc(-c4ccc(Cl)cc4)nn23)c(Cl)cc1Cl 116

Thanks! And C[C@@H]1C[C@H](N)C[C@H](c2ccncc2NC(=O)c2ccc(F)c(-c3c(F)cccc3F)n2)C1 ? 49.1

COc1ccc(/C(=C\c2cc(OC)c(OC)c(OC)c2)C(=O)N2CCN(c3ccccc3)CC2)cc1O ? 99

Same question for O=C(Nc1ccc(Cl)c(C(F)(F)F)c1)c1ccc(Nc2ccc(Cl)nn2)cc1 please. 86.1

Here is the next compound: NC(=O)Nc1ccc2ncnc(Nc3cccc(O)c3)c2c1 92.8
